Reported activation at 10 µM values for the following compounds.
target: rat-species vanilloid receptor 1 (VR1/TRPV1) (Rattus norvegicus, UniProt O35433); construct: endogenous in cells; host or cells: primary cultured rat dorsal root ganglion cells; test: Functional testing on vanilloid receptor 1 (VR1/TRPV1), FLIPR Ca2+ inflow assay in rat dorsal root ganglia cells; assay type: cell-based; conditions: test compound 10 μM; Ca2+ inflow relative to signal of 10 μM capsaicin (CP); read-out: VR1 (rat) (% stimulation compared to 10 μM CP)
Sequence (O35433 whole entry): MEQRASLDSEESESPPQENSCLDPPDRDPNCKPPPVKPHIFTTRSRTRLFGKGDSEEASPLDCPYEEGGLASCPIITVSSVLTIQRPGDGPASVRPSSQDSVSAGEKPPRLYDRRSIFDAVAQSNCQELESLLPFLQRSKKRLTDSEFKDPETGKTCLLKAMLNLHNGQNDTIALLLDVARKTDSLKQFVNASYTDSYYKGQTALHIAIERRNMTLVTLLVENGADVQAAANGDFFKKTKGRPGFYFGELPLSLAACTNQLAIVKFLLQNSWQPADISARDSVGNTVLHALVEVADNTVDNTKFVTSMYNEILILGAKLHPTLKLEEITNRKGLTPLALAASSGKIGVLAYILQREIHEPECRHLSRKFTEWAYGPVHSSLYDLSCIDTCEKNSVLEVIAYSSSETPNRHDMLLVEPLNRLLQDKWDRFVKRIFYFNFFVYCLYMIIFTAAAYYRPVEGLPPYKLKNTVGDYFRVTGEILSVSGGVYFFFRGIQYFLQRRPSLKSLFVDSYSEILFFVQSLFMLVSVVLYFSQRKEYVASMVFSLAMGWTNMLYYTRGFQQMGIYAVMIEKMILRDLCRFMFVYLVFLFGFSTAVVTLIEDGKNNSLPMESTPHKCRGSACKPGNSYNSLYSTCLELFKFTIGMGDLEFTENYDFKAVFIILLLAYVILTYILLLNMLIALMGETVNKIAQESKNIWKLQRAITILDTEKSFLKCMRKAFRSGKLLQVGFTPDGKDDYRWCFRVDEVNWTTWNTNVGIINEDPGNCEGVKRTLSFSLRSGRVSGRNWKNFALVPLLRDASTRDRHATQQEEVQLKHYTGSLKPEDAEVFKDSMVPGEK
Field: numeric (%). Do not append units.

Example entries begin here.
> print(dat)
                           structure.string                       experimental.target  reading
1  O=C(Nc1ccccc1F)N1CCC2(CC1)CC(C(=O)N1CCN(c3ncccc3Cl)CC1)=NO2  rat-species vanilloid receptor 1 (VR1/TRPV1) (Rattus norvegicus, UniProt O35433)     6.37
2  CC(C)c1ccccc1NC(=O)N1CCC2(CC1)CC(C(=O)N1CCN(c3ncccc3Cl)CC1)=NO2  rat-species vanilloid receptor 1 (VR1/TRPV1) (Rattus norvegicus, UniProt O35433)     0.47
3  CC(C)(C)c1ccc(NC(=O)N2CCC3(CC2)CC(C(=O)N2CCN(c4ncccc4C(F)(F)F)CC2)=NO3)cc1  rat-species vanilloid receptor 1 (VR1/TRPV1) (Rattus norvegicus, UniProt O35433)     17.2
4  CC(C)c1ccc(NC(=O)N2CCC3(CC2)CC(C(=O)N2CCN(c4ncccc4Cl)CC2)=NO3)cc1  rat-species vanilloid receptor 1 (VR1/TRPV1) (Rattus norvegicus, UniProt O35433)     24.5
5  O=C(Nc1cccc(Br)c1)N1CCC2(CC1)CC(C(=O)N1CCN(c3ncccc3Cl)CC1)=NO2  rat-species vanilloid receptor 1 (VR1/TRPV1) (Rattus norvegicus, UniProt O35433)     11.4
6  COc1cccc(NC(=O)N2CCC3(CC2)CC(C(=O)N2CCN(c4ncccc4Cl)CC2)=NO3)c1  rat-species vanilloid receptor 1 (VR1/TRPV1) (Rattus norvegicus, UniProt O35433)     19.8

Here is the next item to consider.
// activation at 10 µM value for `O=C(Nc1ccc(C(F)(F)F)cc1)N1CCC2(CC1)CC(C(=O)N1CCN(c3ncccc3Cl)CC1)=NO2` : 31.2

====

biological target: rat-species vanilloid receptor 1 (VR1/TRPV1) (Rattus norvegicus); construct: endogenous in cells; host or cells: primary cultured rat dorsal root ganglion cells; assay: Functional testing on vanilloid receptor 1 (VR1/TRPV1), FLIPR Ca2+ inflow assay in rat dorsal root ganglia cells; assay type: cell-based; settings: test compound 10 μM; Ca2+ inflow relative to signal of 10 μM capsaicin (CP); read-out: VR1 (rat) (% stimulation compared to 10 μM CP)
Decide by activation at 10 µM: equal to or exceeding 20% means Y, less means N.

Example entries and their recorded answers appear below.
> print(dat)
                           structure.string  class.assignment
1  CC(C)(C)c1ccc(NC(=O)N2CCC3(CC2)CC(C(=O)N2CCN(c4ncccc4Cl)CC2)=NO3)cc1                 Y
2  O=C(Nc1ccc(S(F)(F)(F)(F)F)cc1)N1CCC2(CC1)CC(C(=O)N1CCN(c3ncccc3Cl)CC1)=NO2                 Y
3  O=C(Nc1cccc(C(F)(F)F)c1)N1CCC2(CC1)CC(C(=O)N1CCN(c3ncccc3Cl)CC1)=NO2                 N
4  O=C(Nc1ccc(Cl)c(C(F)(F)F)c1)N1CCC2(CC1)CC(C(=O)N1CCN(c3ncccc3Cl)CC1)=NO2                 N
5  O=C(Nc1ccc(Cl)cc1)N1CCC2(CC1)CC(C(=O)N1CCN(c3ncccc3Cl)CC1)=NO2                 N

Then this compound:
Task item: Hi, just wondering whether `COc1ccc(NC(=O)N2CCC3(CC2)CC(C(=O)N2CCN(c4ncccc4Cl)CC2)=NO3)cc1` shows activation at 10 µM of 20% or higher.
Reply: Y

====

biological target: VR1 (human) (Homo sapiens, UniProt Q8NER1); construct: expressed in transfected cells; host or cells: CHO K1 cells (ECACC); test: Functional testing on vanilloid receptor VR1, FLIPR Ca2+ inflow assay (CHO K1 cells stably transfected with the VR1 gene); format: cell-based; details: test compound 10 μM, 5 min incubation, then 100 nM capsaicin; relative to maximum achievable inhibition with 10 μM capsaicin
Sequence (Q8NER1 whole entry): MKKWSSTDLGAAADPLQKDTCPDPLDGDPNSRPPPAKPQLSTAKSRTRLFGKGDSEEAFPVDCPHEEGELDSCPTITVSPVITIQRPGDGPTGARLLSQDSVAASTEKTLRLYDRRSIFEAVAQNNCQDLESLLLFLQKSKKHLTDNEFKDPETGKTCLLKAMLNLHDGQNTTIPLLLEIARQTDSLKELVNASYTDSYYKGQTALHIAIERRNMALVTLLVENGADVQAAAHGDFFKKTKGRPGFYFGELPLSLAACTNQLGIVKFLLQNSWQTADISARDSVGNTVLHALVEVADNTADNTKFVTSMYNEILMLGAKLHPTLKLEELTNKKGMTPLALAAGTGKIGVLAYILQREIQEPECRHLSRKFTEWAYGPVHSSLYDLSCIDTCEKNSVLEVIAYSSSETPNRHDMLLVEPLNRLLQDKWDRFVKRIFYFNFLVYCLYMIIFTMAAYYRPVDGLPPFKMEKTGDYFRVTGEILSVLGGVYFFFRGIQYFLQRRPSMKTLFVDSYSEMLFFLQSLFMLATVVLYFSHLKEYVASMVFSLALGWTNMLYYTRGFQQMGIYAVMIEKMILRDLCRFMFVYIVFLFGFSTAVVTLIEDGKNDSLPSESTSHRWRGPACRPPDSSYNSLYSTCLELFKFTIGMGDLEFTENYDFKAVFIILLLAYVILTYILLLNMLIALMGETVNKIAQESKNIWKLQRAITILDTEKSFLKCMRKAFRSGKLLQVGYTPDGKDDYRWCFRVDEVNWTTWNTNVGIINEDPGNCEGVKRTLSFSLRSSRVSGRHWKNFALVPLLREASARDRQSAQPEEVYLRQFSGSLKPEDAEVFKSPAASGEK
Metric: VR1 (human) (% inhibition compared to 10 μM CP) (%)
Field: numeric (%). Do not append units.

Example entries begin here.
> print(dat)
                           structure.string  reading
1  COc1cccc(NC(=O)N2CCC3(CC2)CC(C(=O)Nc2ccc(Cl)cn2)=NO3)c1    11.17
2  O=C(Nc1ccc(Cl)cn1)C1=NOC2(CCN(C(=O)Nc3ccccc3Cl)CC2)C1    26.23
3  COc1cccc(NC(=O)N2CCC3(CC2)CC(C(=O)NCc2ccc(OC)c(OC)c2)=NO3)c1     0.77

Here is the next item to consider.
// VR1 (human) (% inhibition compared to 10 μM CP) value for `COc1ccc(CNC(=O)C2=NOC3(CCN(C(=O)Nc4ccc(C(F)(F)F)cc4)CC3)C2)cc1OC` : −0.43

====

target: VR1 (human) (Homo sapiens, UniProt Q8NER1); construct: expressed in transfected cells; host or cells: CHO K1 cells (ECACC); assay: Functional testing on vanilloid receptor VR1, FLIPR Ca2+ inflow assay (CHO K1 cells stably transfected with the VR1 gene); type: cell-based; conditions: CHO-K1; test compound 10 μM, 5 min incubation, then 100 nM capsaicin; relative to maximum achievable inhibition with 10 μM capsaicin; read-out: VR1 (human) (% inhibition compared to 10 μM CP)
Grouping key: inhibition at 10 µM. Bins: LOW = under 30%, MEDIUM = from 30% up to 40%, HIGH = 40% and over

Example entries and their recorded answers appear below.
> print(dat)
                           structure.string                       experimental.target  class.assignment
1  O=C(Nc1ccccc1F)N1CCC2(CC1)CC(C(=O)N1CCN(c3ncccc3Cl)CC1)=NO2  VR1 (human) (Homo sapiens, UniProt Q8NER1)            MEDIUM
2  O=C(Nc1cccc(Br)c1)N1CCC2(CC1)CC(C(=O)N1CCN(c3ncccc3Cl)CC1)=NO2  VR1 (human) (Homo sapiens, UniProt Q8NER1)            MEDIUM

Then this compound:
Task item: GET /class?item= `COc1cccc(NC(=O)N2CCC3(CC2)CC(C(=O)N2CCN(c4ncccc4Cl)CC2)=NO3)c1`
Reply: HIGH

====

molecular target: rat-species vanilloid receptor 1 (VR1/TRPV1) (Rattus norvegicus, UniProt O35433); construct: endogenous in cells; host or cells: primary cultured rat dorsal root ganglion cells; assay: Functional testing on vanilloid receptor 1 (VR1/TRPV1), FLIPR Ca2+ inflow assay in rat dorsal root ganglia cells; type: cell-based; conditions: test compound 10 μM; Ca2+ inflow relative to signal of 10 μM capsaicin (CP)
Metric: VR1 (rat) (% stimulation compared to 10 μM CP) (%)
Field: numeric (%). Do not append units.

Example entries begin here.
> print(dat)
                           structure.string  u  reading
1  O=C(Nc1ccc(Cl)cn1)C1=NOC2(CCN(C(=O)Nc3ccccc3Cl)CC2)C1  %     0.23
2  COc1cccc(NC(=O)N2CCC3(CC2)CC(C(=O)Nc2ccc(Cl)cn2)=NO3)c1  %     4.68
3  COc1cccc(NC(=O)N2CCC3(CC2)CC(C(=O)NCc2ccc(OC)c(OC)c2)=NO3)c1  %     0.00

Here is the next item to consider.
// VR1 (rat) (% stimulation compared to 10 μM CP) value for `COc1ccc(CNC(=O)C2=NOC3(CCN(C(=O)Nc4ccc(C(F)(F)F)cc4)CC3)C2)cc1OC` : 0.35

====

molecular target: VR1 (human) (Homo sapiens, UniProt Q8NER1); construct: expressed in transfected cells; host or cells: CHO K1 cells (ECACC); experiment: Functional testing on vanilloid receptor VR1, FLIPR Ca2+ inflow assay (CHO K1 cells stably transfected with the VR1 gene); assay type: cell-based; settings: CHO-K1; test compound 10 μM, 5 min incubation, then 100 nM capsaicin; relative to maximum achievable inhibition with 10 μM capsaicin; read-out: VR1 (human) (% inhibition compared to 10 μM CP)
Metric: inhibition at 10 µM (%)
Field: numeric (%). Do not append units.

Example entries begin here.
> print(dat)
                           structure.string                       experimental.target  reading
1  CSc1ccc(NC(=O)N2CCC3(CC2)CC(C(=O)N2CCN(c4ncccc4Cl)CC2)=NO3)cc1  VR1 (human) (Homo sapiens, UniProt Q8NER1)     84.9
2  O=C(Nc1ccc(Cl)cc1)N1CCC2(CC1)CC(C(=O)N1CCN(c3ncccc3Cl)CC1)=NO2  VR1 (human) (Homo sapiens, UniProt Q8NER1)     63.4
3  CC(C)(C)c1ccc(NC(=O)N2CCC3(CC2)CC(C(=O)N2CCN(c4ncccc4C(F)(F)F)CC2)=NO3)cc1  VR1 (human) (Homo sapiens, UniProt Q8NER1)     48.1

Here is the next item to consider.
// inhibition at 10 µM value for `CC(C)(C)c1ccc(NC(=O)N2CCC3(CC2)CC(C(=O)N2CCN(c4ncccc4Cl)CC2)=NO3)cc1` : 77
